The values you see were collected from patent US10570179B2.

Assay: Cytotoxicity assay (CellTiter-Glo cell viability)
Format: cell-based
Details: African green monkey
Protocol: Cytotoxicity was determined by determining the effect of compounds on cell viability. […] After an additional 72 hours of incubation, viability was indirectly measured using the CellTiter-Glo® Luminescent Cell Viability (Promega) assay. Assay plates were read at peak emission wavelength of 560 nm using a EnVision® Multilabel Plate Reader (Perkin Elmer) or PHERAstar FS Multilabel reader (BMG, Cary, N.C.). […]
Numbered stars: 1 amine (or outer) side, 2 acyl side, 3 side chain; on linkers, the order of the positions; unused ones are H or OH. Bridge positions count the residues as written; N and C are the ends. Square brackets hold non-standard residues; d marks the D form. Peptide text beside a SMILES is read from it. * marks the point of attachment. ξ: configuration not given here. Phe(3,5-Me2) = Cc1cc(C)cc(C[C@H](N)C(=O)O)c1; Phe(3-Me) = Cc1cccc(C[C@H](N)C(=O)O)c1; NH(4-Cl-2-F-phenyl) = Fc1cc(Cl)ccc1N*; Pro(4R-Me) = C[C@H]1CN[C@H](C(=O)O)C1; Hyp = O=C(O)[C@@H]1C[C@@H](O)CN1; ξNMeThr = CNC(C(=O)O)[C@@H](C)O; aThr = C[C@H](O)[C@H](N)C(=O)O; Pip = O=C(O)[C@@H]1CCCCN1; CO = O=C([*:1])[*:2]
readoutType: IC50 at 72 h

compound	readoutType	result
Cc1cc(C)cc(C[C@H](NC(=O)Nc2ccc(Cl)cc2F)C(=O)N[C@@H]2C(=O)N3CCC[C@H]3C(=O)N3CCCC[C@H]3C(=O)N[C@@H](C)C(=O)N3C[C@H](C)C[C@H]3C(=O)O[C@H]2C)c1 [Compound 4] ({NH(4-Cl-2-F-phenyl)-CO}-[Phe(3,5-Me2)][aThr]P[Pip]A[Pro(4R-Me)]; ester 2-C)	IC50 at 72 h	11 µM
Cc1cccc(C[C@H](NC(=O)Nc2ccc(Cl)cc2F)C(=O)N[C@@H]2C(=O)N3CCC[C@H]3C(=O)N(C)C([C@@H](C)O)C(=O)N[C@@H](C)C(=O)N3C[C@H](C)C[C@H]3C(=O)O[C@H]2C)c1 (stereo partly drawn) [Compound 5] ({NH(4-Cl-2-F-phenyl)-CO}-[Phe(3-Me)][aThr]P[ξNMeThr]A[Pro(4R-Me)]; ester 2-C)	IC50 at 72 h	> 10 µM
Cc1cccc(C[C@H](NC(=O)Nc2ccc(Cl)cc2F)C(=O)N[C@@H]2C(=O)N3C[C@H](O)C[C@H]3C(=O)N3CCCC[C@H]3C(=O)N[C@@H](C)C(=O)N3C[C@H](C)C[C@H]3C(=O)O[C@H]2C)c1 [Compound 6] ({NH(4-Cl-2-F-phenyl)-CO}-[Phe(3-Me)][aThr][Hyp][Pip]A[Pro(4R-Me)]; ester 2-C)	IC50 at 72 h	50.5 µM
Cc1cccc(C[C@H](NC(=O)Nc2ccc(Cl)cc2F)C(=O)N[C@H]2COC(=O)[C@@H]3C[C@@H](C)CN3C(=O)[C@H](C)NC(=O)[C@@H]3CCCCN3C(=O)[C@@H]3CCCN3C2=O)c1 [Compound 8]	IC50 at 72 h	> 10 µM

* * *

assay: Plasma pharmacokinetics; assay type: in vivo, male BALB/c mice; conditions: male, BALB/c, mouse, in vivo, iv
Numbered stars: 1 amine (or outer) side, 2 acyl side, 3 side chain; on linkers, the order of the positions; unused ones are H or OH. Bridge positions count the residues as written; N and C are the ends. Square brackets hold non-standard residues; d marks the D form. Peptide text beside a SMILES is read from it. * marks the point of attachment. Phe(3-Me) = Cc1cccc(C[C@H](N)C(=O)O)c1; NH(4-Cl-2-F-phenyl) = Fc1cc(Cl)ccc1N*; Pro(4R-Me) = C[C@H]1CN[C@H](C(=O)O)C1; Hyp = O=C(O)[C@@H]1C[C@@H](O)CN1; aThr = C[C@H](O)[C@H](N)C(=O)O; Pip = O=C(O)[C@@H]1CCCCN1; CO = O=C([*:1])[*:2]

compound	AUC(0-t)
Cc1cccc(C[C@H](NC(=O)Nc2ccc(Cl)cc2F)C(=O)N[C@@H]2C(=O)N3C[C@H](O)C[C@H]3C(=O)N3CCCC[C@H]3C(=O)N[C@@H](C)C(=O)N3C[C@H](C)C[C@H]3C(=O)O[C@H]2C)c1 [Compound 6] ({NH(4-Cl-2-F-phenyl)-CO}-[Phe(3-Me)][aThr][Hyp][Pip]A[Pro(4R-Me)]; ester 2-C)	11500 ng·h/mL
Cc1cccc(C[C@H](NC(=O)Nc2ccc(Cl)cc2F)C(=O)N[C@@H]2C(=O)N3CCC[C@H]3C(=O)N3CCCC[C@H]3C(=O)N[C@@H](C)C(=O)N3C[C@H](C)C[C@H]3C(=O)O[C@H]2C)c1 [Compound 3] ({NH(4-Cl-2-F-phenyl)-CO}-[Phe(3-Me)][aThr]P[Pip]A[Pro(4R-Me)]; ester 2-C)	12500 ng·h/mL

* * *

test: Plasma pharmacokinetics; type: in vivo, male BALB/c mice; conditions: male, BALB/c, mouse, in vivo, iv
Numbered stars: 1 amine (or outer) side, 2 acyl side, 3 side chain; on linkers, the order of the positions; unused ones are H or OH. Bridge positions count the residues as written; N and C are the ends. Square brackets hold non-standard residues; d marks the D form. Peptide text beside a SMILES is read from it. * marks the point of attachment. Piperazine(2S-CO,4-Me) = CN1CCN[C@H](C(=O)O)C1; Morpholine(3S-CO) = O=C(O)[C@@H]1COCCN1; Phe(3-Me) = Cc1cccc(C[C@H](N)C(=O)O)c1; NH(4-Cl-2-F-phenyl) = Fc1cc(Cl)ccc1N*; Pro(4R-Me) = C[C@H]1CN[C@H](C(=O)O)C1; X1 = O=C([C@@H]1CSCCN1[*:1])[*:2]; Hyp = O=C(O)[C@@H]1C[C@@H](O)CN1; NH(4-Et-phenyl) = CCc1ccc(N*)cc1; aThr = C[C@H](O)[C@H](N)C(=O)O; Pip = O=C(O)[C@@H]1CCCCN1; CO = O=C([*:1])[*:2]
Entries and their measured AUC(0-inf) follow.
readoutType: AUC(0-inf)

compound	result
Cc1cccc(C[C@H](NC(=O)Nc2ccc(Cl)cc2F)C(=O)N[C@@H]2C(=O)N3C[C@H](O)C[C@H]3C(=O)N3CCN(C)C[C@H]3C(=O)N[C@@H](C)C(=O)N3C[C@H](C)C[C@H]3C(=O)O[C@H]2C)c1 [Compound 31] ({NH(4-Cl-2-F-phenyl)-CO}-[Phe(3-Me)][aThr][Hyp][Piperazine(2S-CO,4-Me)]A[Pro(4R-Me)]; ester 2-C)	5260 ng·h/mL
Cc1cccc(C[C@H](NC(=O)Nc2ccc(Cl)cc2F)C(=O)N[C@@H]2C(=O)N3CCC[C@H]3C(=O)N3CCN(C)C[C@H]3C(=O)N[C@@H](C)C(=O)N3C[C@H](C)C[C@H]3C(=O)O[C@H]2C)c1 [Compound 11] ({NH(4-Cl-2-F-phenyl)-CO}-[Phe(3-Me)][aThr]P[Piperazine(2S-CO,4-Me)]A[Pro(4R-Me)]; ester 2-C)	5040 ng·h/mL
Cc1cccc(C[C@H](NC(=O)Nc2ccc(Cl)cc2F)C(=O)N[C@@H]2C(=O)N3CCC[C@H]3C(=O)N3CCSC[C@H]3C(=O)N[C@@H](C)C(=O)N3C[C@H](C)C[C@H]3C(=O)O[C@H]2C)c1 [Compound 38] ({NH(4-Cl-2-F-phenyl)-CO}-[Phe(3-Me)][aThr]P[X1]A[Pro(4R-Me)]; ester 2-C)	13300 ng·h/mL
Cc1cccc(C[C@H](NC(=O)Nc2ccc3c(c2)OCO3)C(=O)N[C@H]2COC(=O)[C@@H]3C[C@@H](C)CN3C(=O)[C@H](C)NC(=O)[C@@H]3CCCCN3C(=O)[C@@H]3CCCN3C2=O)c1	12000 ng·h/mL
CCc1ccc(NC(=O)N[C@@H](Cc2cccc(C)c2)C(=O)N[C@@H]2C(=O)N3C[C@H](O)C[C@H]3C(=O)N3CCOC[C@H]3C(=O)N[C@@H](C)C(=O)N3C[C@H](C)C[C@H]3C(=O)O[C@H]2C)cc1 [Compound 24] ({NH(4-Et-phenyl)-CO}-[Phe(3-Me)][aThr][Hyp][Morpholine(3S-CO)]A[Pro(4R-Me)]; ester 2-C)	3870 ng·h/mL
Cc1cccc(C[C@H](NC(=O)Nc2ccc(Cl)cc2F)C(=O)N[C@@H]2C(=O)N3C[C@H](O)C[C@H]3C(=O)N3CCCC[C@H]3C(=O)N[C@@H](C)C(=O)N3C[C@H](C)C[C@H]3C(=O)O[C@H]2C)c1 [Compound 6] ({NH(4-Cl-2-F-phenyl)-CO}-[Phe(3-Me)][aThr][Hyp][Pip]A[Pro(4R-Me)]; ester 2-C)	11900 ng·h/mL
Cc1cccc(C[C@H](NC(=O)Nc2ccc(Cl)cc2F)C(=O)N[C@@H]2C(=O)N3CCC[C@H]3C(=O)N3CCCC[C@H]3C(=O)N[C@@H](C)C(=O)N3C[C@H](C)C[C@H]3C(=O)O[C@H]2C)c1 [Compound 3] ({NH(4-Cl-2-F-phenyl)-CO}-[Phe(3-Me)][aThr]P[Pip]A[Pro(4R-Me)]; ester 2-C)	12600 ng·h/mL
CCc1ccc(NC(=O)N[C@@H](Cc2cccc(C)c2)C(=O)N[C@H]2COC(=O)[C@@H]3C[C@@H](C)CN3C(=O)[C@H](C)NC(=O)[C@@H]3CN(C)CCN3C(=O)[C@@H]3CCCN3C2=O)cc1 [Compound 16] ({NH(4-Et-phenyl)-CO}-[Phe(3-Me)]SP[Piperazine(2S-CO,4-Me)]A[Pro(4R-Me)]; ester 2-C)	3770 ng·h/mL
